- Tested on: SK-MEL-2
- ASSAY_DETAILS: NCI tumour cell line growth inhibition, 48 h
The source made the active and inactive calls. Rule as the data show it: active = GI50 up to about 1.1 µM and inactive = higher.
Assignment: determine reported GI50 for the given compounds.

# annotated cases, reported GI50 shown
# input compound: COc1cc2c(NCCCCCO)ncnc2c(OC)c1OC ; wanted: its GI50
> 100 µM (inactive)

How about this compound: C=CCn1c(N)c(C#N)c(C#N)c1-c1ccccc1
26.8 µM (inactive)

How about this compound: COc1ccc(NCc2c(O)ccc3ccccc23)cc1
64.1 µM (inactive)

How about this compound: NCCC1(N)CCNCC1
> 100 µM (inactive)

How about this compound: O=C1Nc2ccccc2C(=O)/C1=C/NC(=S)NCc1ccccc1
> 100 µM (inactive)

// each compound listed below needs its GI50
1. CC(=O)C1C(=O)C(=O)N(c2ccccc2)C1=O (stereo unspecified)
2. COc1ccc2nc(NC(=O)C(=O)C(C(=O)c3ccccc3-c3ccccc3)C3OC(=O)c4ccccc43)sc2c1 (stereo unspecified)
3. COc1ccc(C2Oc3c(cc(O)c(OC)c3C)[C@@H]2C)cc1OC (stereo partly specified)
4. CC(C)(C)OC(=O)N1CCC(C(=O)O)CC1
5. CC#CC(=O)SCCNC(=O)CC

1: > 100 µM (inactive); 2: 13.6 µM (inactive); 3: > 100 µM (inactive); 4: > 100 µM (inactive); 5: > 10 µM (inactive)

// each compound listed below needs its GI50
1. COc1ccc(C(=O)Cn2c(C(C)=O)nc3ccccc32)cc1
2. COc1ccc(C2C(Cl)C(=O)N2NC(=O)c2ccccc2O)cc1 (stereo unspecified)
3. COc1c(C(=O)/C(=N/Nc2ccc(C(=O)O)cc2)C(C)=O)c(O)cc2occc12
4. O=C(O)/C(=C\c1ccccc1)Cc1ccccc1
5. c1sc(NC2=NCCO2)c2c1CCCC2
6. O=C(CC1(O)C(=O)Nc2c(Cl)cc(Cl)cc21)c1ccccc1 (stereo unspecified)

["12.7 µM (inactive)", "> 100 µM (inactive)", "> 100 µM (inactive)", "> 100 µM (inactive)", "> 100 µM (inactive)", "> 100 µM (inactive)"]

// each compound listed below needs its GI50
1. CCCn1cc2c(O)nc(SC)nc2n1
2. N#CC1=C(N)N2C(=O)/C(=C/c3ccccc3)SC2C(c2nc3ccccc3[nH]2)=C1c1ccccc1 (stereo unspecified)
3. Nc1nc(N)c2ncn(CCCC(c3ccccc3)P(=O)(O)O)c2n1 (stereo unspecified)
4. O=C1OC(O)C(Oc2c(Cl)cccc2Cl)=C1Cl (stereo unspecified)

> 100 µM (inactive)
2.04 µM (inactive)
> 100 µM (inactive)
15.3 µM (inactive)

// each compound listed below needs its GI50
1. C[n+]1c(Cl)cn2c3nc4ccccc4nc3c([O-])c(C#N)c21
2. COC(=O)c1c(OC(=O)c2ccccc2)noc1CC(=O)OC1C=CCCC1 (stereo unspecified)
3. CC1(C)CCC(C)(C)c2c1ccc(O)c2Cc1c(O)ccc2c1C(C)(C)CCC2(C)C
4. Cc1cccc2c1C(=O)OC2(C)c1cccc2ccccc12 (stereo unspecified)
5. Cc1c2ncccc2cc2oc3ccccc3c(=O)c12
6. N#Cc1[nH]c(=O)n(-c2ccc(Cl)cc2)c1N
7. COc1ccc(C=O)c([N+](=O)[O-])c1

1: > 4.65 µM (inactive); 2: > 100 µM (inactive); 3: 1.65 µM (inactive); 4: 23.8 µM (inactive); 5: > 100 µM (inactive); 6: > 10 µM (inactive); 7: 35.2 µM (inactive)

* * *

Assignment: determine reported GI50 for the given compounds.
- System: HT-29
- ASSAY_DETAILS: NCI tumour cell line growth inhibition, 48 h
Active and inactive are the calls of the source. Rule as the data show it: active = GI50 up to about 1.1 µM and inactive = higher.

# annotated cases, reported GI50 shown
# input compound: CCCC(=O)N/S(=N/S(=O)(=O)c1ccc(Cl)cc1)C(Cl)(Cl)Cl (stereo not given) ; wanted: its GI50
> 100 µM (inactive)

How about this compound: C[n+]1c(Cl)cn2c3nc4ccccc4nc3c([O-])c(C#N)c21
> 100 µM (inactive)

How about this compound: N#CCCN(CCC#N)c1ccc(/C=C2\N=C(c3ccccc3)N(c3ccc(Cl)cc3)C2=O)cc1
> 100 µM (inactive)

How about this compound: CC1(C)CCCCCC(O)C(O)CCC(C)(C)C1=O (stereo not given)
> 100 µM (inactive)

// below: GI50 requested for another compound
# input compound: CN(C)CCNC(=O)c1cccc2[nH]c(-c3ccc(Cl)cc3)nc12 ; wanted: its GI50
4.24 µM (inactive)

* * *

- System: MCF7
- ASSAY_DETAILS: NCI tumour cell line growth inhibition, 48 h
Active and inactive are the calls of the source. No stated cut-off is given here; in the data, active = GI50 up to about 1.1 µM and inactive = higher.
// one of class 1 (active), class 0 (inactive), no free text

Below are worked cases with known answers.
How did this test come out for O=[N+]([O-])c1ccc2ncccc2c1CCc1c([N+](=O)[O-])ccc2ncccc12 ?
class 0

How about this compound: COC(=O)[C@@H]1O[C@]12C(CO[Si](C)(C)C(C)(C)C)OC(n1ccc(=O)[nH]c1=O)C2O[Si](C)(C)C(C)(C)C (some centres undefined)
class 0

Others:
How did this test come out for Cc1c2cc[n+](Cc3ccc(I)cc3)cc2c(C)c2c1[nH]c1ccccc12 ?
class 1

How about this compound: COc1cc(/C=C(\C#N)c2ccccn2)cc(Br)c1O
class 0

How about this compound: Nc1nc(N)c2c(n1)NC(=O)c1c(c3ccccc3n1Cc1ccc(Cl)cc1)C2
class 0

How about this compound: CCOC(=O)CSc1nc2ccccc2c(=O)n1N
class 0

How about this compound: C=C1CC[C@@]2(C)[C@@H]([C@@H]1C)[C@H]1CC[C@@H]3[C@@]4(C)CC[C@H](O)C(C)(C)[C@@H]4CC[C@@]3(C)[C@]1(C)C[C@@H]2O
class 0

How about this compound: CCOC(=O)CC1(O)CCCCC1(Sc1ccc(C)cc1)Sc1ccc(C)cc1 (centres undefined)
class 0

How about this compound: Clc1cc(N/N=C(/c2ccccc2)c2ncccn2)ncn1
class 0

* * *

- System: CAKI-1
- ASSAY_DETAILS: NCI tumour cell line growth inhibition, 48 h
Calls of active or inactive are those of the source. No stated cut-off is given here; in the data, active = GI50 up to about 1.1 µM and inactive = higher.
// one of t = active, f = inactive, no free text

Below are worked cases with known answers.
How did this test come out for O=c1[nH]c2ccc(Cl)cc2c2oc(-c3ccccc3)nc12 ?
f

How about this compound: CCOC(=O)c1ccc(N(C)Cc2cnc3nc(N)nc(N)c3n2)cc1
f

How about this compound: N#Cc1c(-c2ccccc2)c(/C=N/c2ccc(Cl)cc2)c(=O)n2c1[nH]c1ccccc12
f

How about this compound: Cc1ccc(C)n1-n1c(Cc2ccc(Cl)cc2)n[nH]c1=O
f

How about this compound: CC1(C)CC(=O)C(=CNc2nc(-c3cccc([N+](=O)[O-])c3)cs2)C(=O)C1
f

How about this compound: CC1=CC(=O)NP(=O)(C23CC4CC(CC(C4)C2)C3)N1 (centres undefined)
f

How about this compound: CC(=O)O[C@H]1C(=O)[C@@]2(C)[C@H]([C@H](OC(=O)c3ccccc3)[C@]3(O)C[C@H](OC(=O)[C@H](O)[C@@H](NC(=O)c4ccccc4)c4ccccc4)C(C)=C1C3(C)C)[C@]1(OC(C)=O)CO[C@@H]1C[C@@H]2O [PACLITAXEL]
t

How about this compound: O=C1N/C(=N/N=C\C(O)C(O)C(O)C(O)CO)N/C1=C\c1ccc(Cl)cc1 (centres undefined)
f

How about this compound: O=C1Nc2ccccc2C(=O)/C1=C/NC(=S)NCc1ccccc1
f

How about this compound: Cc1c2ncccc2cc2oc3ccccc3c(=O)c12
f

Others:
How did this test come out for CC1(C)CCC(C)(C)c2c1ccc(O)c2Cc1c(O)ccc2c1C(C)(C)CCC2(C)C ?
f

How about this compound: CC(=O)C1C(=O)C(=O)N(c2ccccc2)C1=O (centres undefined)
f

How about this compound: COc1ccc(NCc2c(O)ccc3ccccc23)cc1
f

* * *

- Test system: HCC 2998
- ASSAY_DETAILS: NCI tumour cell line growth inhibition, 48 h
Activity calls are given as the source filed them. Rule as the data show it: active = GI50 up to about 1.1 µM and inactive = higher.
PARAMETER_MEASURED: GI50

# input compound: O=C(NC12CC3CC(CC(C3)C1)C2)C(=O)c1c[nH]c2ccc([N+](=O)[O-])cc12 ; wanted: its GI50
> 100 µM (inactive)

How about this compound: CC(=O)Nc1cc2nc3n(c2cc1C)CCC3OC(C)=O (centres undefined)
> 100 µM (inactive)

How about this compound: COc1ccc(/N=N/C(=O)NC(Cc2ccccc2)C(=O)O)cc1 (centres undefined)
> 100 µM (inactive)

// each compound listed below needs its GI50
1. COC1=CC(=Nc2c(Cl)cc(Cl)cc2OC(=O)c2ccc([N+](=O)[O-])cc2)C=C(OC)C1=O
2. COc1ccc(C(O)c2ccc3c(c2)OCO3)cc1 (centres undefined)

18.2 µM (inactive)
> 100 µM (inactive)

// each compound listed below needs its GI50
1. CC1(C)CC(=O)C(=CNc2nc(-c3cccc([N+](=O)[O-])c3)cs2)C(=O)C1
2. O=C(O)[C@@H]1C2CC([C@@H]1C(=O)O)[C@H](N1C(=O)CCC1=O)[C@@H]2Br (some centres undefined)
3. O=C1C(Cl)=C(c2ccc([N+](=O)[O-])cc2)C(=O)c2c(O)cccc21

["15.7 µM (inactive)", "> 100 µM (inactive)", "2.26 µM (inactive)"]
